# ASSAY OVERVIEW: Toxicity (mortality) of combinations: pre-treatment for one hour with 11,473 or 11,121, then pindolol
# Set-up: species or system CFLP-mice
# PARTICULARS: mouse, in vivo, po; pindolol alone 200 mg/kg p.o.
PARAMETER MEASURED: mortality (%)
Answers are plain numbers, in %.

Dear colleague, please send me the reported mortality for CC(C)NCC(O)COc1cccc2[nH]ccc12.Cl (stereo not shown) [Pindolol, hydrochloride] when you can.
16

====

# ASSAY OVERVIEW: Oral acute toxicity (LD50) of the individual components, one week observation
# PARTICULARS: mouse, in vivo
PARAMETER MEASURED: LD50 at 168 h (mg/kg)
Numbers only, in mg/kg.

Dear colleague, please send me the reported LD50 at 168 h for CC(C)NCC(O)COc1cccc2[nH]ccc12.Cl (stereo not shown) when you can.
300

====

# ASSAY OVERVIEW: Toxicity (mortality) of combinations: pre-treatment for one hour with 11,473 or 11,121, then pindolol
# Parameters: species or system CFLP-mice
# PARTICULARS: mouse, in vivo, po; pindolol alone 60 mg/kg p.o.
# Protocol: Based on the data given in points 1 and 2 above it can be stated that a considerable potentiating synergism appears with respect to the hypotensive effect when applying the compounds of formula (I) in combination with those of formula (V). […] In the first test series the LD50 values of the individual components were determined on CFLP-mice. […] To determine the toxicity values of the combinations dosages calculated on the basis of the isobole construction principle were applied. […]
PARAMETER MEASURED: mortality (%)
Numbers only, in %.

Dear colleague, please send me the reported mortality for CC(C)NCC(O)COc1cccc2[nH]ccc12.Cl (stereo not shown) [Pindolol, hydrochloride] when you can.
0

====

# ASSAY OVERVIEW: Toxicity (mortality) of combinations: pre-treatment for one hour with 11,473 or 11,121, then pindolol
# Set-up: species or system CFLP-mice
# PARTICULARS: mouse, in vivo, po; pindolol alone 300 mg/kg p.o.
PARAMETER MEASURED: mortality (%)
Give bare numbers, in %.

Dear colleague, please send me the reported mortality for CC(C)NCC(O)COc1cccc2[nH]ccc12.Cl (stereo not shown) [Pindolol, hydrochloride] when you can.
46
